system.tested: human M4 muscarinic acetylcholine receptor (Homo sapiens)
Construct: expressed in transfected cells
experimental.protocol: human FLIPR-based M4 PAM assay (CHO-K1 cells with human M4 receptor and Gαqi5, calcium dye fluorescence)
Type: cell-based
condition.description: inflection point of 4 parameter logistic fit; acetylcholine added at 20% of maximum response; read-out: M4PAM IP
# maps each entry to its pEC50
# pEC50: negative log10 of molar concentration; output just the value

{"molecule": "Cc1cc(-c2cnn(CC3(C(F)(F)F)CC3)c2)c(-c2ccn3ccnc3c2)nc1C", "number": 6.79}
{"molecule": "Cc1ccc(-c2cnn(CCC(C)(C)F)c2)c(-c2ccc3c(c2)C(=O)NC3)n1", "number": 6.88}
{"molecule": "N#Cc1ccc(-c2cnn(CCC3CC3)c2)c(-c2ccn3ccnc3c2)n1", "number": 7.45}
{"molecule": "Cc1cn2ccc(-c3nc(C#N)ccc3-c3cnn(CC(C)(C)C)c3)cc2n1", "number": 7.61}
{"molecule": "Cc1nc2cc(-c3nc(C#N)ccc3-c3cnn(CC(F)C(C)(F)F)c3)ccc2n1C (centres unmarked)", "number": 7.09}

Exercise: Give the reported pEC50 for Cc1nnc2cc(-c3nc(C#N)ccc3-c3cnn(CC(C)(C)C)c3)ccn12 (system: human M4 muscarinic acetylcholine receptor (Homo sapiens)).
Key: 6.99

Exercise: Give recorded pEC50 with human M4 muscarinic acetylcholine receptor (Homo sapiens) for the following molecule: Cc1cn2ccc(-c3nc(C#N)ccc3-c3cnn(CCC(O)C(F)(F)F)c3)cc2n1 (centres unmarked)
Key: 7.05

Exercise: Recall the recorded pEC50 for Cc1cn2ccc(-c3nc(C#N)ccc3-c3cnn(CC4(CC(C)C)CC4)c3)cc2n1 with human M4 muscarinic acetylcholine receptor (Homo sapiens) and state it.
Key: 6.97

====

system.tested: human M4 muscarinic acetylcholine receptor (Homo sapiens, UniProt P08173)
Construct: expressed in transfected cells
Sequence (P08173 whole entry): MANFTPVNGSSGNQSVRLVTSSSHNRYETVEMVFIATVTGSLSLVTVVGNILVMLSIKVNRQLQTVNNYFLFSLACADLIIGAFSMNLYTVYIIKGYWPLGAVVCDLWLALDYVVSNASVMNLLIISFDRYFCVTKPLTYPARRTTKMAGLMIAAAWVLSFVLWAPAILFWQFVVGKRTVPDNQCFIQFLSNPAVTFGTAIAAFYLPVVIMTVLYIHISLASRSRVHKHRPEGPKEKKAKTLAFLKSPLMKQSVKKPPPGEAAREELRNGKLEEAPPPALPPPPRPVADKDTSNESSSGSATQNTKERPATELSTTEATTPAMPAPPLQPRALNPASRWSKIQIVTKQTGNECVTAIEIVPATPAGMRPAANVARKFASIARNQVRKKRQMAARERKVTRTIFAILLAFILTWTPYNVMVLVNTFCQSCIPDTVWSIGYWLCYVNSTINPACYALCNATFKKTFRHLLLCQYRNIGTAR
experimental.protocol: human FLIPR-based M4 PAM assay (CHO-K1 cells with human M4 receptor and Gαqi5, calcium dye fluorescence)
Format: cell-based
condition.description: inflection point of 4 parameter logistic fit; acetylcholine added at 20% of maximum response; read-out: M4PAM IP
property.name: pEC50
Note on pEC50: it is the negative log10 of concentration, concentration in mol/L.

Below: 5 molecules and their reported pEC50.
{"molecule": "FC(F)(F)C1(Cn2cc(-c3cc(Cl)cnc3-c3ccn4ccnc4c3)cn2)CC1 [Example 57]", "pEC50": 6.57}
{"molecule": "CC(C)(C)Cn1cc(-c2ccc(C3CC3)nc2-c2ccn3ccnc3c2)cn1 [Example 99]", "pEC50": 6.82}
{"molecule": "Cc1ccc(-c2cnn(CC3(C)CCCCC3)c2)c(-c2ccc3cn[nH]c3c2)n1 [Example 3]", "pEC50": 7.18}
{"molecule": "Cc1nc2cc(-c3nc(C#N)ccc3-c3cnn(CC(C)(C)C(F)(F)F)c3)ccn2n1 [Example 101]", "pEC50": 7.24}
{"molecule": "Cc1ccc(-c2cnn(Cc3ccccc3)c2)c(-c2ccc3c(c2)C(=O)N(CC2CC2)C3)n1 [Example 11]", "pEC50": 6.87}

Consider the additional molecule presented here.
Exercise: // returns reported pEC50 for input Cc1ccc(-c2cnn(CC(C)(C)C)c2)c(-c2ccn3cnnc3c2)n1 [Example 71]
Key: 7.25

====

system.tested: human M4 muscarinic acetylcholine receptor (Homo sapiens, UniProt P08173)
Construct: expressed in transfected cells
experimental.protocol: human FLIPR-based M4 PAM assay (CHO-K1 cells with human M4 receptor and Gαqi5, calcium dye fluorescence)
Type: cell-based
condition.description: inflection point of 4 parameter logistic fit; acetylcholine added at 20% of maximum response; read-out: M4PAM IP
property.name: pEC50
Lab note: report pEC50 as minus log10 of the concentration in molar units, number only.

// below: answered compounds
{"compound": "CC(C)(C)Cn1cc(-c2ccc(C#N)nc2-c2ccn3ncnc3c2)cn1 [Example 72]", "number": 6.87}
{"compound": "CC(C)CCn1cc(-c2cccnc2-c2ccc3c(c2)C(=O)N(C2CCC2)C3)cn1 [Example 116]", "number": 7.07}
{"compound": "Cc1nc2cc(-c3nc(C#N)ccc3-c3cnn(CCC(C)(F)F)c3)ccc2n1C [Example 27]", "number": 7.13}
{"compound": "Cc1nc2cc(-c3nc(C#N)ccc3-c3cnn(CC(C)(C)CC(F)F)c3)ccc2n1C [Example 34]", "number": 7.27}
{"compound": "Cc1ccc(-c2cnn(CC3CC3(C)C)c2)c(-c2ccn3ccnc3c2)n1 (centres unmarked) [Example 109]", "number": 7.12}

Here is another compound to look at.
Exercise: So what does the record say about pEC50 for Cc1ccc(-c2cnn(CCC(C)(C)F)c2)c(-c2ccc3c(c2)C(=O)N(C)C3)n1 [Example 9] ?
Key: 7.09
